Overview of reported log10 ED50 across a group of compounds:
Tested on: reserpine-induced ptosis
method: Test 2: prevention of reserpine-induced ptosis (eye closure) in rats, oral
Format: in vivo, rats (Charles River CD strain, male)
test context: Rattus norvegicus; rats, oral, reserpine 0.75 mg/kg i.v., ptosis scored 3 h later; read-out: Test 2 ED50 (dose causing 50% prevention of the reserpine-induced ptosis)
Scale type: logarithmic (base 10). Underlying ED50 unit: mg/kg.

Record excerpt, results attached:
{"compound": "OC1(c2ccc(Cl)cc2)CCCNC12CCCCC2 (stereo not shown) [Example 1]", "log10 ED50": 1.05}
{"compound": "C1=C(c2ccc(-c3ccccc3)cc2)C2(CCCCC2)NCC1.Cl [Example 25]", "log10 ED50": 1.00}
{"compound": "CCCN1CCC=C(c2ccc(Cl)cc2)C12CCCCC2 [Example 20]", "log10 ED50": 0.48}
{"compound": "CN1CCC=C(c2ccc(Cl)cc2)C12CCCCC2.Cl [Example 14]", "log10 ED50": 1.48}

[Q] What measured log10 ED50 goes with C1=C(c2ccc3ccccc3c2)C2(CCCCC2)NCC1.Cl [Example 12] ?
[A] 1.08

====

Tested on: reserpine-induced fall in body temperature
method: Test 1: reversal of reserpine-induced hypothermia in mice, oral
Type: in vivo, mice (Charles River CD1 strain, male)
test context: Mus musculus, po, 3 h, read-out: Test 1 ED50 (dose causing 50% reversal of the reserpine-induced fall in body temperature)
assay readout: ED50

Below: 3 molecules and their reported ED50.
{"smiles text": "Cl.Clc1cccc(C2=CCCNC23CCCCC3)c1", "ED50": "16.4 mg/kg"}
{"smiles text": "Clc1ccc(C2=CCCNC23CCCCC3)cc1.O=S(=O)(O)O", "ED50": "~20 mg/kg"}
{"smiles text": "Fc1ccc(C2=CCCNC23CCCCC3)cc1.O=S(=O)(O)O", "ED50": "~18 mg/kg"}

Proceeding to the next molecule to report its ED50.
[Q] Can you share its ED50? I mean this molecule: Clc1ccc(C2=CCCNC23CCCC3)cc1.O=S(=O)(O)O
[A] ~23 mg/kg

====

Test system: reserpine-induced ptosis
method: Test 2: prevention of reserpine-induced ptosis (eye closure) in rats, oral
Format: in vivo, rats (Charles River CD strain, male)
test context: Rattus norvegicus; rats, oral, reserpine 0.75 mg/kg i.v., ptosis scored 3 h later; read-out: Test 2 ED50 (dose causing 50% prevention of the reserpine-induced ptosis)
assay readout: ED50 (mg/kg)
Numeric answer only, unit mg/kg assumed.

As a guide, the following entries are already answered.
{"compound": "Clc1ccc(C2=CCCNC23CCCCC3)cc1 [Example 6, hydrate]", "target of assay": "reserpine-induced ptosis", "unit descriptor": "mg/kg", "measurement": 2.7}
{"compound": "Cl.Clc1ccc(C2=CCCNC23CCCCC3)cc1 [Example 7]", "target of assay": "reserpine-induced ptosis", "unit descriptor": "mg/kg", "measurement": 1.4}
{"compound": "Clc1ccc(C2=CCCNC23CCCCC3)cc1.O=C(O)/C=C/C(=O)O [Example 15]", "target of assay": "reserpine-induced ptosis", "unit descriptor": "mg/kg", "measurement": 3.8}
{"compound": "Cl.Clc1ccc(C2=CCNC23CCCCC3)cc1 [Example 26]", "target of assay": "reserpine-induced ptosis", "unit descriptor": "mg/kg", "measurement": 5.6}
{"compound": "OC1(c2ccc(Cl)c(Cl)c2)CCCNC12CCCCC2 (centres unmarked) [Example 3]", "target of assay": "reserpine-induced ptosis", "unit descriptor": "mg/kg", "measurement": 7.7}
{"compound": "COc1ccc(C2CCCNC23CCCCC3)cc1.Cl (centres unmarked) [Example 19]", "target of assay": "reserpine-induced ptosis", "unit descriptor": "mg/kg", "measurement": 5.8}

[Q] Report ED50 for Cl.Oc1ccc(C2=CCCNC23CCCCC3)cc1 [Example 13] please.
[A] 21.8

[Q] // query: C=CCN1CCC=C(c2ccc(Cl)cc2)C12CCCCC2.O=C(O)/C=C\C(=O)O [Example 21]
[A] 9.1

[Q] Please do the same for CS(=O)(=O)O.Clc1ccc(C2=CCCNC23CCCCC3)cc1 [Example 16] as well.
[A] 3.3

[Q] Do the same for Cl.Clc1ccc(C2CCCNC23CCCCC3)cc1 (centres unmarked) [Example 18] please
[A] 0.5

====

System: reserpine-induced ptosis
method: Test 2: prevention of reserpine-induced ptosis (eye closure) in rats, oral
Assay type: in vivo, rats (Charles River CD strain, male)
test context: Rattus norvegicus; rats, oral, reserpine 0.75 mg/kg i.v., ptosis scored 3 h later; read-out: Test 2 ED50 (dose causing 50% prevention of the reserpine-induced ptosis)
Counter-ions that a name gives are not always drawn.
assay readout: ED50 (mg/kg)
Answer in mg/kg, number only, no unit symbol.

{"compound": "Cl.Clc1ccc(C2=CCCNC23CCCCC3)cc1Cl", "target of assay": "reserpine-induced ptosis", "ED50 (mg/kg)": 3.9}
{"compound": "OC1(c2cccc(Cl)c2)CCCNC12CCCCC2 (stereo not shown)", "target of assay": "reserpine-induced ptosis", "ED50 (mg/kg)": 8.1}
{"compound": "CCN1CCCC(O)(c2ccc(Cl)cc2)C12CCCCC2.Cl (stereo not shown)", "target of assay": "reserpine-induced ptosis", "ED50 (mg/kg)": 2.2}

Read the next record carefully.
[Q] Request the reported ED50 associated with COCCN1CCC=C(c2ccc(Cl)cc2)C12CCCCC2 [Example 22, hydrochloride]
[A] 10.1
